What INHIBITION was measured for each of the following?
Test system: Plasmodium berghei
Experiment: Screen against P. berghei liver stage (PbLuc), transformed with Luciferase, at 10uM
Assay type: functional, HepG2
Settings: tested at 10 uM
Screen size: about 69,000 compounds; about 8,600 (12%) showed an effect of 50% or more. This is one part of a sample in which strong results are shown more often than they occur.

The examples below pair each entry with its known result.
[[record]]
compound = "Cc1cc(S(=O)(=O)NCC(C)(O)CN(C)C)c(F)cc1F (stereo unspecified)"
measured_result = "36.5%"

[[record]]
compound = "O=C(NCCC1COc2ccccc2O1)c1ccc(N2CC(O)C2)nc1 (stereo unspecified)"
measured_result = "59.5%"

[[record]]
compound = "CN(C)C1(CNC(=O)Cc2ccc(F)cc2)CCOCC1"
measured_result = "-21.8%"

[[record]]
compound = "O=C(NCCC1COc2ccccc2O1)c1ccc(-c2cc[nH]n2)nc1 (stereo unspecified)"
measured_result = "-21.6%"


Kindly give each listed record's INHIBITION.
1. O=C(NCCC1COc2ccccc2O1)c1ccc(-c2cn[nH]c2)nc1 (stereo unspecified)
2. O=C(CCn1nc(-c2cccs2)oc1=O)Nc1cccc(F)c1
3. CC(NCC1(N(C)C)CCOCC1)c1ccc(Cl)cc1 (stereo unspecified)
4. CC(C(=O)Nc1ncccn1)N1CCC(n2ccnc2)CC1 (stereo unspecified)

1. 48.9%
2. 31.9%
3. -2.025%
4. 54.4%

Kindly give each listed record's INHIBITION.
1. CN(C)C1(CNC(=O)c2c(O)cc(Cl)cc2Cl)CCOCC1
2. CC1CCN(C(=O)c2cnn3c(-c4ccco4)ccnc23)CC1
3. COc1ccc(C(=O)N2CC(=O)N(CC3CC3)CC(O)C2)cc1 (stereo unspecified)

1. 54.8%
2. -82.6%
3. 42.7%

###

Test system: Plasmodium berghei
Test: Screen against P. berghei liver stage (PbLuc), transformed with Luciferase, at 10uM
Format: functional, HepG2
Settings: tested at 10 uM
Hit rate of the full screen: of about 69,000 compounds, about 8,600 (12%) showed an effect of 50% or more. Many of the other results were omitted from the sample, so strong results are more common in it than they were.
REPORTED_ENDPOINT: INHIBITION
Returns: string containing the numeric result and its unit.

The examples below pair each entry with its known result.
[[record]]
compound = "O=C(COCC(=O)N(c1ccccc1)c1ccccc1)N1CCCC1"
subject_of_test = "Plasmodium berghei"
reported_endpoint = "INHIBITION"
measured_result = "-7.27%"

[[record]]
compound = "CCc1nccn1-c1cncc(C2CCCN2Cc2ccc(F)cc2)n1 (configuration not stated)"
subject_of_test = "Plasmodium berghei"
reported_endpoint = "INHIBITION"
measured_result = "31.1%"

[[record]]
compound = "CC(C)c1nnc2n1CCN(C(=O)c1ccnc(N(C)C)c1)C2"
subject_of_test = "Plasmodium berghei"
reported_endpoint = "INHIBITION"
measured_result = "42%"

[[record]]
compound = "COc1c(C)cnc(CSc2nnc(N3CCCC3)s2)c1C"
subject_of_test = "Plasmodium berghei"
reported_endpoint = "INHIBITION"
measured_result = "32.9%"

[[record]]
compound = "NC(=O)C1(c2cnccn2)CCCN1Cc1ccc(Cl)cc1 (configuration not stated)"
subject_of_test = "Plasmodium berghei"
reported_endpoint = "INHIBITION"
measured_result = "-7.79%"

[[record]]
compound = "Cc1cccc(N2CCN(C(=O)CNCCn3cccn3)CC2)c1"
subject_of_test = "Plasmodium berghei"
reported_endpoint = "INHIBITION"
measured_result = "-76.5%"

[[record]]
compound = "COc1ccc(Cn2c(=O)n(C)c(=O)c3sccc32)cc1"
subject_of_test = "Plasmodium berghei"
reported_endpoint = "INHIBITION"
measured_result = "75.7%"

[[record]]
compound = "COc1ccc(CN2C[C@@H]3C(CC(=O)N4CCCC4)[C@@H]3C2)cc1 (some centres not stated)"
subject_of_test = "Plasmodium berghei"
reported_endpoint = "INHIBITION"
measured_result = "17.4%"

[[record]]
compound = "Cc1cc(N(C)C)nc(N2CCN(Cc3nccn3C)CC2)n1"
subject_of_test = "Plasmodium berghei"
reported_endpoint = "INHIBITION"
measured_result = "-87%"

[[record]]
compound = "NC(=O)C1(c2cnccn2)CCCN1Cc1ccncc1 (configuration not stated)"
subject_of_test = "Plasmodium berghei"
reported_endpoint = "INHIBITION"
measured_result = "72.3%"


Kindly give each listed record's INHIBITION.
1. COc1cccc(-n2cc3[nH]c(=O)n(Cc4cccc(F)c4)n3c2=O)c1
2. CCCc1n[nH]c(=O)n1Cc1ccc(OC)cc1

1. 36.3%
2. -32.6%

###

What INHIBITION was measured for each of the following?
System: Plasmodium berghei
Assay: Screen against P. berghei liver stage (PbLuc), transformed with Luciferase, at 10uM
Type: functional, HepG2
Conditions: tested at 10 uM
Hit rate of the full screen: of about 69,000 compounds, about 8,600 (12%) showed an effect of 50% or more. This excerpt belongs to a sample that is enriched for strong results.

[[record]]
compound = "Cn1c(Cn2ccnc2)nnc1C1CCN(C(=O)c2cccnc2)CC1"
subject_of_test = "Plasmodium berghei"
measured_result = "-27.4%"

[[record]]
compound = "CS(=O)(=O)CCN1CCCC1c1noc(C2CC2)n1 (stereo unspecified)"
subject_of_test = "Plasmodium berghei"
measured_result = "-38.2%"


Kindly give each listed record's INHIBITION.
1. CCOc1ccc(CN2CCC(c3nc(C)cc(C)n3)C2)cc1CO (stereo unspecified)
2. Cc1noc(C2CCC3(CCN(C(=O)c4ncccn4)CC3)O2)n1 (stereo unspecified)
3. CN(C)Cc1nn(C)c2c1CCN(C(=O)c1cnccn1)C2

1. 44.05%
2. -14.2%
3. -43.1%

State its INHIBITION: NC(=O)C(Nc1ccc(Cl)cc1)c1ccc(F)cc1 (stereo unspecified)
4.81%

###

What INHIBITION was measured for each of the following?
System: Plasmodium berghei
Assay: Screen against P. berghei liver stage (PbLuc), transformed with Luciferase, at 10uM
Assay type: functional, HepG2
Details: tested at 10 uM
Out of some 69,000 compounds screened, about 8,600 (12%) showed an effect of 50% or more. For the sample, strong results were picked, then their nearest neighbours and some compounds at random.
Answers are plain numbers, in %.

The examples below pair each entry with its known result.
[[record]]
molecule = "CNC(=O)C1CN(Cc2c[nH]cn2)CCN(C2CCOCC2)C1 (stereo not given)"
subject_of_test = "Plasmodium berghei"
reported_endpoint = "INHIBITION"
measured_result = 25.6

[[record]]
molecule = "O=C(CS(=O)(=O)Cc1csc(-c2ccc(F)cc2)n1)NCC1CC1"
subject_of_test = "Plasmodium berghei"
reported_endpoint = "INHIBITION"
measured_result = 0.991

[[record]]
molecule = "COc1cccc(CN(C)Cc2cccc(C#N)c2)c1OC"
subject_of_test = "Plasmodium berghei"
reported_endpoint = "INHIBITION"
measured_result = -3.19

[[record]]
molecule = "CN(C)CC1(O)CCCN(C(=O)CCc2nc3cccnc3n2C)C1 (stereo not given)"
subject_of_test = "Plasmodium berghei"
reported_endpoint = "INHIBITION"
measured_result = 8.64

[[record]]
molecule = "Cc1ccc(N(C)S(=O)(=O)c2cc(C(=O)O)cs2)c(C)c1"
subject_of_test = "Plasmodium berghei"
reported_endpoint = "INHIBITION"
measured_result = -42.1


Kindly give each listed record's INHIBITION.
1. CC(C)(NS(C)(=O)=O)c1nc(-c2cccc(Cl)c2)no1
2. O=C(C1CCOCC1)N1CCOC(CC2CCCCC2)C1 (stereo not given)
3. O=C(C1CCOCC1)N1C[C@@H]2OCCN(CCN3CCCC3)[C@@H]2C1
4. COc1cc(N2CCC3(CC2)CNC(=O)CO3)ncn1
5. CCC(O)CN1CCN(C(=O)c2cnc3n[nH]c(C)c3c2)CC1 (stereo not given)
6. Cc1ccc(N2CCC3(CCN(C(=O)c4ccsc4)C3)CC2)nn1

[-4.83, 54.8, 46.7, 16.6, 12.7, 36.4]

Kindly give each listed record's INHIBITION.
1. CS(=O)(=O)NC1CCCN(C(=O)COCc2ccccc2)C1 (stereo not given)
2. COc1cc(CN(C)CCc2ccncc2)c(SC)cc1OC
3. CC(=O)N1CCC(N2CCOC(CC3CCCCC3)C2)CC1 (stereo not given)

-75.98
32.7
35.2

###

System: Plasmodium berghei
Assay: Screen against P. berghei liver stage (PbLuc), transformed with Luciferase, at 10uM
Assay type: functional, HepG2
Settings: tested at 10 uM
The whole screen tested about 69,000 compounds, of which about 8,600 (12%) showed an effect of 50% or more. For the sample, strong results were picked, then their nearest neighbours and some compounds at random.
What INHIBITION was measured for each of the following?
One number for each entry, in %.

[[record]]
compound = "Oc1nc(N2CCOCC2)nc2c1CCN(Cc1ccccc1)CC2"
measured_result = 35.2

[[record]]
compound = "CC(C)CC(C)N(C)Cc1nnc(-c2ccco2)o1 (configuration not stated)"
measured_result = -17.5

[[record]]
compound = "Oc1nc(N2CCOCC2)nc2c1CCN(Cc1cccnc1)CC2"
measured_result = 23.3


Kindly give each listed record's INHIBITION.
1. Cc1ccc(CN2CCc3nc(C(C)C)nc(O)c3CC2)s1
2. Cc1nc2c(c(NC(C)C)n1)CCN(Cc1cccnc1)CC2
3. CN(Cc1nnc(C2CCC2)o1)C(C(N)=O)c1cccc(F)c1 (configuration not stated)
4. CC(C)C(C)N(C)Cc1nnc(-c2ccco2)o1 (configuration not stated)
5. Cc1ccc(CN2CCC3(CC2)C(=O)Nc2ccccc23)s1

[2.55, 49.7, 12.7, 66.9, 23.5]

Kindly give each listed record's INHIBITION.
1. Cc1nc(C)c2c(n1)CCN(Cc1ccco1)CC2
2. CCn1cc(CN2CCc3nc(N4CCOCC4)nc(O)c3CC2)cn1
3. O=C(c1cc(C2CCCC2)no1)N1CCCCC1

[-53.2, 29.6, -12.5]

State its INHIBITION: CCCC(C)N(C)Cc1nnc(-c2ccco2)o1 (configuration not stated)
26.9
